system: Escherichia coli; assay: Antibacterial activity against Escherichia coli ATCC 11775 assessed as growth inhibition after 24 to 48 hrs by kirby-bauer disc diffusion method; format: functional, DSM 30083 = JCM 1649; note: test concentration or dose not given here

# compound, diameter of the inhibition zone (DIZ) [mm]
records = [
    ("COc1cc(-c2nc3sc4c(c3c(=O)n2-c2nc3ccccc3s2)CCCC4)cc(OC)c1OC", 15),
    ("COc1cc(-c2nc3sc4c(c3c(=O)n2C(Cc2cc3ccccc3[nH]2)C(=O)O)CCCC4)cc(OC)c1OC (stereo not drawn)", 0),
    ("NC(=O)n1c(/C=C/c2ccccc2)nc2sc3c(c2c1=O)CCCC3", 14),
    ("O=C(NO)Nc1nc(/C=C/c2ccccc2)nc2sc3c(c12)CCCC3", 10),
    ("COc1cc(-c2nc3sc4c(c3c(=O)n2-c2ccc(S(N)(=O)=O)cc2)CCCC4)cc(OC)c1OC", 12),
    ("COc1cc(-c2nc3sc4c(c3c(=O)n2-c2ccc3c(C)c5ccc(N)cc5nc3c2)CCCC4)cc(OC)c1OC", 22),
    ("COc1cc(-c2nc(NC(=O)NO)c3c4c(sc3n2)CCCC4)cc(OC)c1OC", 0),
    ("NC(=S)n1c(/C=C/c2ccccc2)nc2sc3c(c2c1=O)CCCC3", 13),
    ("NS(=O)(=O)c1ccc(-n2c(/C=C/c3ccccc3)nc3sc4c(c3c2=O)CCCC4)cc1", 15),
    ("COc1cc(-c2nc3sc4c(c3c(=O)n2-c2nc3cc([N+](=O)[O-])ccc3s2)CCCC4)cc(OC)c1OC", 15),
    ("O=C(O)C(Cc1ccccc1)n1c(/C=C/c2ccccc2)nc2sc3c(c2c1=O)CCCC3 (stereo not drawn)", 14),
    ("Cc1c2ccc(N)cc2nc2cc(Nc3nc(/C=C/c4ccccc4)nc4sc5c(c34)CCCC5)ccc12", 12),
    ("O=c1c2c3c(sc2nc(/C=C/c2ccccc2)n1-c1nc2cc([N+](=O)[O-])ccc2s1)CCCC3", 14),
    ("COc1cc(-c2nc3sc4c(c3c(=O)n2-c2ccc(C(=O)O)cc2)CCCC4)cc(OC)c1OC", 10),
    ("COc1cc(-c2nc3sc4c(c3c(=O)n2C(=O)NO)CCCC4)cc(OC)c1OC", 14),
    ("CC1(C)S[C@@H]2[C@H](NC(=O)[C@H](N)c3ccccc3)C(=O)N2[C@H]1C(=O)O", 22),
    ("O=C(O)c1ccc(-n2c(/C=C/c3ccccc3)nc3sc4c(c3c2=O)CCCC4)cc1", 16),
    ("Cc1c2ccc(N)cc2nc2cc(-n3c(/C=C/c4ccccc4)nc4sc5c(c4c3=O)CCCC5)ccc12", 21),
    ("COc1cc(-c2nc3sc4c(c3c(=O)n2-c2cc(=O)[nH]c(=O)[nH]2)CCCC4)cc(OC)c1OC", 14),
    ("O=c1c2c3c(sc2nc(/C=C/c2ccccc2)n1-c1nc2ccccc2s1)CCCC3", 13),
    ("COc1cc(-c2nc3sc4c(c3c(=O)n2C(N)=O)CCCC4)cc(OC)c1OC", 16),
    ("COc1cc(-c2nc3sc4c(c3c(=O)n2C(Cc2ccccc2)C(=O)O)CCCC4)cc(OC)c1OC (stereo not drawn)", 13),
    ("COc1cc(-c2nc3sc4c(c3c(=O)n2C2CONC2=O)CCCC4)cc(OC)c1OC (stereo not drawn)", 17),
    ("O=c1cc(-n2c(/C=C/c3ccccc3)nc3sc4c(c3c2=O)CCCC4)[nH]c(=O)[nH]1", 15),
    ("O=C(O)C(Cc1cc2ccccc2[nH]1)n1c(/C=C/c2ccccc2)nc2sc3c(c2c1=O)CCCC3 (stereo not drawn)", 0),
    ("O=C1NOCC1n1c(/C=C/c2ccccc2)nc2sc3c(c2c1=O)CCCC3 (stereo not drawn)", 15),
    ("Cc1ccc2sc(-n3c(/C=C/c4ccccc4)nc4sc5c(c4c3=O)CCCC5)nc2c1", 14),
    ("COc1cc(-c2nc3sc4c(c3c(=O)n2C(N)=S)CCCC4)cc(OC)c1OC", 14),
    ("C/C(=C\\c1ccccc1)c1nc2sc3c(c2c(=O)[nH]1)CCCC3", 0),
    ("O=c1[nH]c(/C=C/c2ccccc2)nc2sc3c(c12)CCCC3", 0),
    ("O=C(NO)n1c(/C=C/c2ccccc2)nc2sc3c(c2c1=O)CCCC3", 13),
    ("COc1cc(-c2nc3sc4c(c3c(=O)n2-c2nc3cc(C)ccc3s2)CCCC4)cc(OC)c1OC", 12),
    ("O=c1[nH]c(/C=C/c2ccccc2[N+](=O)[O-])nc2sc3c(c12)CCCC3", 10),
]
